- Tested on: Plasmodium falciparum
- TEST NAME: Antimalarial activity against chloroquine-sensitive Plasmodium falciparum D10 after 48 hrs
- Type: functional, organism-based
- CONDITION SUMMARY: D10, 48 h
OUTCOME MEASURE: IC50 (µM)
The reply should contain only the number, in µM.

Answered cases to consult:
# ENTRY SMILES, OUTCOME MEASURE, UNITS OF MEASURE, ASSAY RESULT
rows = [
    ("COc1ccc(/C=C/C(=O)/C=C/c2ccc(OCc3cn(-c4ccnc5cc(Cl)ccc45)nn3)c(OC)c2)c(OC)c1", "IC50", "µM", 5.1),
    ("COc1cc(/C=C/C(=O)/C=C/c2ccc(F)cc2)ccc1OCc1cn(-c2ccnc3cc(Cl)ccc23)nn1", "IC50", "µM", 9.4),
    ("COc1ccc(/C=C/C(=O)c2ccc(OCc3cn(-c4ccnc5cc(Cl)ccc45)nn3)c(OC)c2)c(OC)c1", "IC50", "µM", 5.2),
    ("COc1cc(/C=C/C(=O)/C=C/c2ccc(OC)c(OC)c2OC)ccc1OCc1cn([C@H]2C[C@H](n3cc(C)c(=O)[nH]c3=O)O[C@@H]2CO)nn1", "IC50", "µM", 1.3),
    ("C#CCOc1ccc(/C=C/C(=O)/C=C/c2ccc(Cl)cc2Cl)cc1OC", "IC50", "µM", 9.2),
    ("C#CCOc1ccc(C(=O)/C=C/c2ccc(Cl)cc2Cl)cc1OC", "IC50", "µM", 3.3),
    ("C#CCOc1ccc(/C=C/C(=O)/C=C/c2ccc(F)cc2)cc1OC", "IC50", "µM", 9.8),
    ("COc1cc(/C=C/C(=O)/C=C/c2ccc(F)cc2F)ccc1OCc1cn([C@H]2C[C@H](n3cc(C)c(=O)[nH]c3=O)O[C@@H]2CO)nn1", "IC50", "µM", 1.4),
    ("COc1cc(/C=C/C(=O)c2ccc(OC)c(OC)c2OC)ccc1OCc1cn(-c2ccnc3cc(Cl)ccc23)nn1", "IC50", "µM", 0.4),
    ("COc1ccc(/C=C/C(=O)/C=C/c2ccc(OCc3cn([C@H]4C[C@H](n5cc(C)c(=O)[nH]c5=O)O[C@@H]4CO)nn3)c(OC)c2)cc1", "IC50", "µM", 2.8),
]

IN: IC50 lookup needed for COc1ccc(C(=O)/C=C/c2ccc(OCc3cn(-c4ccnc5cc(Cl)ccc45)nn3)c(OC)c2)c(OC)c1 , thanks.
OUT: 0.04

IN: IC50 lookup needed for COc1ccc(/C=C/C(=O)/C=C/c2ccc(OCc3cn(-c4ccnc5cc(Cl)ccc45)nn3)c(OC)c2)cc1 , thanks.
OUT: 3

IN: IC50 lookup needed for COc1cc(/C=C/C(C)=O)ccc1OCc1cn([C@H]2C[C@H](n3cc(C)c(=O)[nH]c3=O)O[C@@H]2CO)nn1 , thanks.
OUT: 12

----------
- TEST NAME: Inhibition of beta-hematin formation assessed as equivalents of drug relative to hematin
- Assay type: functional
Label yes when IC50 is strictly below 2 equiv; otherwise label no.

Record excerpt, results attached:
# MOLECULE, CATEGORY
data = [
    ("COc1cc(C(=O)/C=C/c2ccc(OC)c(OC)c2OC)ccc1OCc1cn(-c2ccnc3cc(Cl)ccc23)nn1", "no"),
    ("C#CCOc1ccc(/C=C/C(=O)c2ccc(OC)cc2OC)cc1OC", "yes"),
    ("CCN(CC)CCCC(C)Nc1ccnc2cc(Cl)ccc12 (stereo not drawn) [CHLOROQUINE]", "yes"),
    ("COc1ccc(C(=O)/C=C/c2ccc(OCc3cn(-c4ccnc5cc(Cl)ccc45)nn3)c(OC)c2)c(OC)c1", "yes"),
    ("COc1cc(C(=O)/C=C/c2ccc(F)cc2)ccc1OCc1cn(-c2ccnc3cc(Cl)ccc23)nn1", "no"),
]

IN: Please determine if COc1cc(C(=O)/C=C/c2ccc(F)cc2F)ccc1OCc1cn(-c2ccnc3cc(Cl)ccc23)nn1 is below 2 equiv in terms of IC50.
OUT: yes

IN: Please determine if COc1cc(/C=C/C(=O)c2ccc(OC)c(OC)c2OC)ccc1OCc1cn(-c2ccnc3cc(Cl)ccc23)nn1 is below 2 equiv in terms of IC50.
OUT: yes

----------
- Tested on: Plasmodium falciparum
- TEST NAME: Antimalarial activity against chloroquine-sensitive Plasmodium falciparum D10 after 48 hrs
- Assay type: functional, organism-based
- CONDITION SUMMARY: D10, 48 h
OUTCOME MEASURE: pIC50
Scale: pIC50 equals -log10([C]), with [C] in mol/L.

Answered cases to consult:
# ENTRY SMILES, TESTED SYSTEM, ASSAY RESULT
records = [
    ("COc1cc(C(=O)/C=C/c2ccc(OC)c(OC)c2OC)ccc1OCc1cn([C@H]2C[C@H](n3cc(C)c(=O)[nH]c3=O)O[C@@H]2CO)nn1", "Plasmodium falciparum", 5.27),
    ("COc1cc(C(=O)/C=C/c2ccc(F)cc2)ccc1OCc1cn(-c2ccnc3cc(Cl)ccc23)nn1", "Plasmodium falciparum", 5.13),
    ("COc1cc(C(=O)/C=C/c2ccc(F)cc2)ccc1OCc1cn([C@H]2C[C@H](n3cc(C)c(=O)[nH]c3=O)O[C@@H]2CO)nn1", "Plasmodium falciparum", 5.14),
]

Consider the additional compound presented here.
IN: pIC50 lookup needed for C#CCOc1ccc(/C=C/C(=O)/C=C/c2ccc(F)cc2F)cc1OC , thanks.
OUT: 4.92

----------
- System: Plasmodium falciparum
- TEST NAME: Antimalarial activity against chloroquine-sensitive Plasmodium falciparum D10 after 48 hrs
- Format: functional, organism-based
- CONDITION SUMMARY: D10, 48 h
Measured IC50 values are reported for all entries that follow.

# ENTRY SMILES, TESTED SYSTEM, IC50
rows = [
    ("C#CCOc1ccc(/C=C/C(=O)/C=C/c2ccc(OC)cc2)cc1OC", "Plasmodium falciparum", "11.8 µM"),
    ("COc1ccc(C(=O)/C=C/c2ccc(OCc3cn(-c4ccnc5cc(Cl)ccc45)nn3)c(OC)c2)cc1", "Plasmodium falciparum", "0.6 µM"),
    ("COc1cc(/C=C/C(C)=O)ccc1OCc1cn(-c2ccnc3cc(Cl)ccc23)nn1", "Plasmodium falciparum", "0.8 µM"),
    ("COc1cc(C(=O)/C=C/c2ccc(F)cc2F)ccc1OCc1cn([C@H]2C[C@H](n3cc(C)c(=O)[nH]c3=O)O[C@@H]2CO)nn1", "Plasmodium falciparum", "3.9 µM"),
    ("COc1cc(/C=C/C(=O)/C=C/c2ccc(Cl)cc2Cl)ccc1OCc1cn([C@H]2C[C@H](n3cc(C)c(=O)[nH]c3=O)O[C@@H]2CO)nn1", "Plasmodium falciparum", "1.4 µM"),
]

IN: IC50 lookup needed for COc1cc(/C=C/C(=O)/C=C/c2ccc(F)cc2F)ccc1OCc1cn(-c2ccnc3cc(Cl)ccc23)nn1 , thanks.
OUT: 10.2 µM

IN: IC50 lookup needed for Cc1cn([C@H]2C[C@H](N=[N+]=[N-])[C@@H](CO)O2)c(=O)[nH]c1=O , thanks.
OUT: > 20 µM

IN: IC50 lookup needed for COc1cc(/C=C/C(=O)/C=C/c2ccc(F)cc2)ccc1OCc1cn([C@H]2C[C@H](n3cc(C)c(=O)[nH]c3=O)O[C@@H]2CO)nn1 , thanks.
OUT: 1.7 µM

----------
- Tested on: Plasmodium falciparum
- TEST NAME: Antimalarial activity against chloroquine-resistant Plasmodium falciparum W2 after 48 hrs by FACS analysis in presence of 10 % human serum
- Assay type: functional, organism-based
- CONDITION SUMMARY: W2, 48 h
OUTCOME MEASURE: IC50 (µM)
The reply should contain only the number, in µM.

Answered cases to consult:
# ENTRY SMILES, ASSAY RESULT
records = [
    ("COc1ccc(/C=C/C(=O)/C=C/c2ccc(OCc3cn(-c4ccnc5cc(Cl)ccc45)nn3)c(OC)c2)cc1", 5.3),
    ("COc1cc(C(=O)/C=C/c2ccc(F)cc2F)ccc1OCc1cn(-c2ccnc3cc(Cl)ccc23)nn1", 10.6),
    ("COc1cc(C(=O)/C=C/c2ccc(F)cc2)ccc1OCc1cn([C@H]2C[C@H](n3cc(C)c(=O)[nH]c3=O)O[C@@H]2CO)nn1", 6.6),
    ("C#CCOc1ccc(C(=O)/C=C/c2ccc(F)cc2F)cc1OC", 9.4),
    ("COc1ccc(C(=O)/C=C/c2ccc(OCc3cn(-c4ccnc5cc(Cl)ccc45)nn3)c(OC)c2)cc1", 5),
    ("COc1ccc(/C=C/C(=O)/C=C/c2ccc(OCc3cn([C@H]4C[C@H](n5cc(C)c(=O)[nH]c5=O)O[C@@H]4CO)nn3)c(OC)c2)c(OC)c1", 14.5),
    ("COc1cc(/C=C/C(=O)c2ccc(OC)c(OC)c2OC)ccc1OCc1cn([C@H]2C[C@H](n3cc(C)c(=O)[nH]c3=O)O[C@@H]2CO)nn1", 5.4),
    ("COc1cc(C(=O)/C=C/c2ccc(F)cc2)ccc1OCc1cn(-c2ccnc3cc(Cl)ccc23)nn1", 6.9),
    ("COc1cc(C(=O)/C=C/c2ccc(Cl)cc2Cl)ccc1OCc1cn(-c2ccnc3cc(Cl)ccc23)nn1", 11.5),
    ("C#CCOc1ccc(/C=C/C(=O)/C=C/c2ccc(OC)c(OC)c2OC)cc1OC", 9.2),
]

Consider the additional compound presented here.
IN: IC50 lookup needed for COc1cc(C(=O)/C=C/c2ccc(OC)c(OC)c2OC)ccc1OCc1cn(-c2ccnc3cc(Cl)ccc23)nn1 , thanks.
OUT: 0.5
